experiment: Volume of distribution at steady state in iv dosed rat; assay type: ADME, organism-based; details: in vivo, read-out: Vdss
Please go through the items and note down their Vd.
Respond numerically; units are L/kg and should not be typed.

Requested field: Vd. Item: COc1cc2c(c(OC)n1)[C@]1(O)[C@H](O)[C@H](CN(C)C)[C@@H](c3ccccc3)[C@]1(c1ccc(C#N)cc1)O2 13

Requested field: Vd. Item: COc1cncc2c1[C@]1(O)[C@H](O)[C@H](CN(C)C)[C@@H](c3ccccc3)[C@]1(c1ccc(C#N)cc1)O2 (stereo in doubt; (-)-37) 5.2

Requested field: Vd. Item: COc1cncc2c1[C@]1(O)[C@H](O)[C@H](C(=O)N(C)C)[C@@H](c3ccccc3)[C@]1(c1ccc(C#N)cc1)O2 1.1

Requested field: Vd. Item: COc1nc(C#N)cc2c1[C@]1(O)[C@H](O)[C@H](CN(C)C)[C@@H](c3ccccc3)[C@]1(c1ccc(C#N)cc1)O2 10.3

====

experiment: physchem
Please go through the items and note down their solubility thermodynamic.

Requested field: solubility thermodynamic. Item: COc1cncc2c1[C@]1(O)[C@H](O)[C@H](CN(C)C)[C@@H](c3ccccc3)[C@]1(c1ccc(C#N)cc1)O2.Cl > 20 mg/mL

Requested field: solubility thermodynamic. Item: COc1cncc2c1[C@]1(O)[C@H](O)[C@H](C(=O)N(C)C)[C@@H](c3ccccc3)[C@]1(c1ccc(C#N)cc1)O2.Cl 0.22 mg/mL

Requested field: solubility thermodynamic. Item: COc1cc2c(c(OC)n1)[C@]1(O)[C@H](O)[C@H](CN(C)C)[C@@H](c3ccccc3)[C@]1(c1ccc(C#N)cc1)O2.Cl > 20 mg/mL

====

test: Protein binding in mouse plasma; format: ADME, cell-free; conditions: read-out: PPB (converted)
Reported metric: fraction unbound
Give only the figure.

Requested field: fraction unbound. Item: COc1cc2c(c(OC)n1)[C@]1(O)[C@H](O)[C@H](CN(C)C)[C@@H](c3ccccc3)[C@]1(c1ccc(C#N)cc1)O2 [ZOTATIFIN] 0.252

====

Please go through the items and note down their IC50.
target: Eukaryotic initiation factor 4A-I (Homo sapiens, UniProt P60842); experiment: Inhibition of eIF4A1 in human MDA-MB-231 cells assessed as inhibition of cellular-translation incubated for 4 hrs by specific tandem sequence motif repeat AGAGAG in 5'- UTR containing luciferase reporter gene assay; type: cell-based
Sequence (P60842 whole entry): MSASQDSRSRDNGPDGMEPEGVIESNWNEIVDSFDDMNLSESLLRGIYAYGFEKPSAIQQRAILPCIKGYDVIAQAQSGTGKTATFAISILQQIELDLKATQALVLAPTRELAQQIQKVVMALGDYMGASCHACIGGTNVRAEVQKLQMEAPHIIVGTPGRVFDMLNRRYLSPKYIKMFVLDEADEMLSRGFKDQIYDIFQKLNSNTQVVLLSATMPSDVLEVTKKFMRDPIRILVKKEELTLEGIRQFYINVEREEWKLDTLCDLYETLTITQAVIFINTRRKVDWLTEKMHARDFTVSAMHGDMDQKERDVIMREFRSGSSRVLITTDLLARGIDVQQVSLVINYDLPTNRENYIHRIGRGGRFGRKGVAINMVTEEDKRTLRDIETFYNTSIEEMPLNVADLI
Respond numerically; units are nM and should not be typed.

Requested field: IC50. Item: C[C@H]1C[C@@]2(O[C@H]3C[C@H]4[C@@H]5CC[C@H]6C[C@H](O)CC[C@]6(C)[C@H]5[C@@H](O)C[C@]4(C)[C@H]3[C@@]2(C)O)OC1(C)C [HIPPURISTANOL] 426

Requested field: IC50. Item: C[C@@H]1C[C@@H]([C@H](O)CC2CC(=O)NC(=O)C2)C(=O)[C@@H](C)C1 [CYCLOHEXIMIDE] 226

Requested field: IC50. Item: COc1cc2c(c(OC)n1)[C@]1(O)[C@H](O)[C@H](CN(C)C)[C@@H](c3ccccc3)[C@]1(c1ccc(C#N)cc1)O2 [ZOTATIFIN] 1.5

====

assay: Clearance in Sprague-Dawley rat at 1 mg, iv administered as single dose measured after 0.083 to 24 hrs by LC-MS analysis; assay type: ADME, organism-based; settings: in vivo
Reported metric: clearance (mL/min/kg)
Respond numerically; units are mL/min/kg and should not be typed.

Requested field: clearance. Item: COc1cc2c(c(OC)n1)[C@]1(O)[C@H](O)[C@H](CN(C)C)[C@@H](c3ccccc3)[C@]1(c1ccc(C#N)cc1)O2 48.3
